The values you see were collected from patent US6124269A.

# key: entry, value: MIC
Test system: Streptococcus pneumoniae GYR 1171
READOUT_KIND: MIC

[[record]]
compound = "CC[C@H]1OC(=O)C(C)(F)C(=O)[C@H](C)[C@@H](O[C@@H]2O[C@H](C)C[C@H](N(C)C)[C@H]2O)[C@](C)(OCC#Cc2cnc3ccccc3c2)C[C@@H](C)C(=O)[C@H](C)[C@H]2NC(=O)O[C@@]21C (stereo partly shown)"
readout_kind = "MIC"
reported_value = "≤ 0.004 µg/mL"

[[record]]
compound = "CC[C@H]1OC(=O)[C@@](C)(F)C(=O)[C@H](C)[C@@H](O[C@@H]2O[C@H](C)C[C@H](N(C)C)[C@H]2O)[C@](C)(OC/C=C/c2ccc3ncccc3c2)C[C@@H](C)C(=O)[C@H](C)[C@H]2NC(=O)O[C@@]21C"
readout_kind = "MIC"
reported_value = "0.015 µg/mL"

[[record]]
compound = "CC[C@H]1OC(=O)C(C)(Br)C(=O)[C@H](C)[C@@H](O[C@@H]2O[C@H](C)C[C@H](N(C)C)[C@H]2O)[C@](C)(OC)C[C@@H](C)C2=NCCN3C(=O)O[C@@]1(C)[C@H]3[C@H]2C (stereo partly shown)"
readout_kind = "MIC"
reported_value = "0.125 µg/mL"

[[record]]
compound = "CC[C@H]1OC(=O)[C@@](C)(F)C(=O)[C@H](C)[C@@H](O[C@@H]2O[C@H](C)C[C@H](N(C)C)[C@H]2O)[C@](C)(OC/C=C/c2cnc3ccc(NC(=O)OC(C)(C)C)cc3c2)C[C@@H](C)C(=O)[C@H](C)[C@H]2NC(=O)O[C@@]21C"
readout_kind = "MIC"
reported_value = "0.06 µg/mL"


###

# key: entry, value: MIC
System: Streptococcus pneumoniae 5649
Test: In vitro agar dilution MIC, organism code ZZA
Assay type: cell-based
Conditions: Table 1D, unit assumed
READOUT_KIND: MIC (µg/mL)

[[record]]
compound = "CC[C@H]1OC(=O)[C@H](C)C(=O)[C@H](C)[C@@H](O[C@@H]2O[C@H](C)C[C@H](N(C)C)[C@H]2O)[C@](C)(OC/C=C/c2ccc3nccnc3c2)C[C@@H](C)C(=O)[C@H](C)[C@H]2NC(=O)O[C@@]21C [Standard C, reference compound]"
readout_kind = "MIC"
unit_text = "µg/mL"
reported_value = 0.5

[[record]]
compound = "CC[C@H]1OC(=O)[C@H](C)C(=O)[C@H](C)[C@@H](O[C@@H]2O[C@H](C)C[C@H](N(C)C)[C@H]2O)[C@](C)(OC/C=C/c2ccccc2)C[C@@H](C)C(=O)[C@H](C)[C@H]2NC(=O)O[C@@]21C [Standard B, reference compound]"
readout_kind = "MIC"
unit_text = "µg/mL"
reported_value = 0.25

[[record]]
compound = "CC[C@H]1OC(=O)[C@@](C)(F)C(=O)[C@H](C)[C@@H](O[C@@H]2O[C@H](C)C[C@H](N(C)C)[C@H]2O)[C@](C)(OC/C=C/c2ccccc2)C[C@@H](C)C(=O)[C@H](C)[C@H]2NC(=O)O[C@@]21C"
readout_kind = "MIC"
unit_text = "µg/mL"
reported_value = 0.25

[[record]]
compound = "CC[C@H]1OC(=O)[C@@](C)(F)C(=O)[C@H](C)[C@@H](O[C@@H]2O[C@H](C)C[C@H](N(C)C)[C@H]2O)[C@](C)(OC/C=C/c2cnc3ccccc3c2)C[C@@H](C)C(=O)[C@H](C)[C@H]2NC(=O)O[C@@]21C"
readout_kind = "MIC"
unit_text = "µg/mL"
reported_value = 0.25

